# Tested on: TE-15 (Esophageal Squamous Cell Carcinoma);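 also: after 72 h of two-drug dosing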
# protocol_description: Bliss excess, mean over the matrix (fraction); higher = more synergy
endpoint_label: Bliss excess

molecule="C[C@@H]1COCCN1c1cc(C2([S@](C)(=N)=O)CC2)nc(-c2ccnc3[nH]ccc23)n1 [AZD6738] + Nc1ccn([C@@H]2O[C@H](CO)[C@@H](O)C2(F)F)c(=O)n1 [Gemcitabine] (first compound max 10 µM, 7x7, partner max 0.3 µM)" tested_system="TE-15 (Esophageal Squamous Cell Carcinoma)" endpoint_label="Bliss excess" recorded_number=0.0378
molecule="COc1cccc(OCCCN)c1-c1cc(Nc2cnc(C#N)cn2)n[nH]1 [Prexasertib] + Cc1cc2ncnn2cc1Nc1ncc2c(n1)n(C1CCOCC1)c(=O)n2C [AZD7648] (first compound max 1 µM, 7x7, partner max 10 µM)" tested_system="TE-15 (Esophageal Squamous Cell Carcinoma)" endpoint_label="Bliss excess" recorded_number=-0.0105
molecule="CN(CCO)CC[C@H](CSc1ccccc1)Nc1ccc(S(=O)(=O)NC(=O)c2ccc(N3CCC([C@@H](O)c4ccccc4-c4ccc(Cl)cc4)CC3)cc2)cc1S(=O)(=O)C(F)(F)F [AZD4320] + C[C@@H](Nc1cc(F)cc(F)c1)c1cc(C(=O)N(C)C)cc2c(=O)cc(N3CCOCC3)oc12 [AZD8186] (first compound max 1 µM, 7x7, partner max 3 µM)" tested_system="TE-15 (Esophageal Squamous Cell Carcinoma)" endpoint_label="Bliss excess" recorded_number=-0.0335
